Test: In vivo kinetics experiment (radioactivity distribution)
Design: species or system Wistar male rat
Details: 60 min after administration; rat i.v.; mean ± SD
The following compounds are listed with their measured Radioactivity distribution Kidney values.
readout kind: Radioactivity distribution Kidney (% ID/g)

>>> print(df.to_string())
                                   compound  unit_spec  numeric_readout
0  COC(=O)c1cncn1[C@H](C)c1ccc(I)cc1 [[^123I] IMTO, (R)-[^123I]iodometomidate, reference compound]     % ID/g             1.10
1  CC(C)n1c(-c2cncc(Cn3ccnc3)c2)nc2ccc([123I])cc21 [[^123I] 606]     % ID/g             0.87
2  CCn1c(-c2cncc(Cn3ccnc3)c2)nc2ccc([123I])cc21 [[^123I] 608]     % ID/g             1.55
3  FCCn1c(-c2cncc(Cn3cncc3[123I])c2)nc2cc(F)c(Cl)cc21 [[^123I] 610]     % ID/g             0.47
4  COc1cc([123I])cc2c1nc(-c1cncc(Cn3ccnc3)c1)n2C1CC1 [[^123I] 609]     % ID/g             0.85
5  Cn1c(-c2cncc(Cn3ccnc3)c2)nc2ccc([123I])cc21 [[^123I] 607]     % ID/g             1.04
6  FCCn1c(-c2cncc(Cn3ccnc3)c2)nc2ccc([123I])cc21 [[^123I] 604]     % ID/g             1.23
7  Fc1cc2nc(-c3cncc(Cn4ccnc4)c3)n(Cc3ccc([123I])cc3)c2cc1Cl [[^123I] 605]     % ID/g             0.83
